# TARGET DESC: histamine H4 receptor (Homo sapiens, UniProt Q9H3N8)
# Construct: expressed in transfected cells; host or cells: HEK293SFM cells (membrane preparation)
# Sequence (Q9H3N8 whole entry): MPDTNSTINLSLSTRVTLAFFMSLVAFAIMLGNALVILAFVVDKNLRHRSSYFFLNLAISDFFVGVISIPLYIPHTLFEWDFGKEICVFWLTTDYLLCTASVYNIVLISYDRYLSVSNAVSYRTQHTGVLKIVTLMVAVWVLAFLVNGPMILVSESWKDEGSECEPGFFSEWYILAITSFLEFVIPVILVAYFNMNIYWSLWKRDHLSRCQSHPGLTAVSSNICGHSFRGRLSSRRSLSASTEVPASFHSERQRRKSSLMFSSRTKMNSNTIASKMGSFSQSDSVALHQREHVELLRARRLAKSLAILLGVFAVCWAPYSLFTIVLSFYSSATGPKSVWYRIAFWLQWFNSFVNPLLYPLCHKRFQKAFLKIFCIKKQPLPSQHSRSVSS
# PROTOCOL: Inhibition of histamine H4 receptor (Table A1; H4 membrane binding assay)
# cutoff 70% applies to inhibition at 1 µM; >= gives Satisfied, < gives Not satisfied

These recorded examples may help you get a feel for the data.
CC1Cc2ccc(-c3cc(C(=O)NC4CC4)n(C)c3)cc2CN1c1cc(N2CCN(C)CC2)nc(N)n1 (single isomer, unassigned) [Example 91B] = Satisfied
CC1Cc2ccc(-c3cnn(C4CCS(=O)(=O)C4)c3)cc2CN1c1cc(N2CCN(C)CC2)nc(N)n1 (stereo not drawn) [Example 98B] = Not satisfied

Query block: Test whether the molecule CC1Cc2ccc(-c3cnn(C4CCOCC4)c3)cc2CN1c1cc(N2CCN(C)CC2)nc(N)n1 (stereo not drawn) [Example 95B] records inhibition at 1 µM of 70% or higher.
Result block: Satisfied

* * *

Form field: log10 of IC50 (one value per entry).
# TARGET DESC: histamine H4 receptor (Homo sapiens)
The base-10 logarithm of IC50, taken with IC50 in nM, is what appears here.

CC1Cc2ccc(-c3ccc(C(=O)N4CC[C@H](F)C4)nc3)cc2CN1c1cc(N2CCN(C)CC2)nc(N)n1 (single isomer, unassigned) [Example 154B] = 2.55
CC1Cc2ccc(-c3ccnc(C(=O)N4CCC4)c3)cc2CN1c1cc(N2CCN(C)CC2)nc(N)n1 (single isomer, unassigned) [Example 62A] = 1.66

Query block: Please give the measured log10 of IC50 for this compound: CNC(=O)c1ncc(-c2ccc3c(c2)CN(c2cc(N4CCN(C)CC4)nc(N)n2)CC3)cc1C
Result block: 2.03

Query block: For the compound shown here, CNC(=O)c1csc(-c2ccc3c(c2)CN(c2cc(N4CCN(C)CC4)nc(N)n2)CC3)n1 , give the reported log10 of IC50.
Result block: 2.10

Query block: Form field: reported log10 of IC50 of CC(=O)Nc1ccc(-c2ccc3c(c2)CN(c2cc(N4CCN(C)CC4)nc(N)n2)CC3)cn1
Result block: 1.49

* * *

# TARGET DESC: histamine H4 receptor (Homo sapiens, UniProt Q9H3N8)
# note: exactly 60 nM is not below, so it is f; use t for IC50 strictly under it

Examples from the recorded data:
CC1Cc2ccc(-c3cnc4[nH]cnc4c3)cc2CN1c1cc(N2CCN(C)CC2)nc(N)n1 (stereo not shown) = t
CC1Cc2ccc(-c3cnn(C4CCOC4)c3)cc2CN1c1cc(N2CCN(C)CC2)nc(N)n1 (single isomer, unassigned) = t

Query block: Strictly below 60 nM in IC50? CC1Cc2ccc(-c3cnn(C4CCCC4)c3)cc2CN1c1cc(N2CCN(C)CC2)nc(N)n1 (single isomer, unassigned)
Result block: t

Query block: Does this compound meet the criterion IC50 < 60 nM? CC1Cc2ccc(-c3ccc(C(=O)N[C@H](C)CO)nc3)cc2CN1c1cc(N2CCN(C)CC2)nc(N)n1 (single isomer, unassigned) [Example 51B]
Result block: f

Query block: Dear reviewer, please state whether CC1Cc2ccc(-c3ccnc(C(=O)N(C)CCN(C)C)c3)cc2CN1c1cc(N2CCN(C)CC2)nc(N)n1 (single isomer, unassigned) [Example 68B] has IC50 strictly beneath 60 nM.
Result block: t

Query block: Does the reported IC50 of the following compound sit strictly below 60 nM? CCn1ccc(-c2ccc3c(c2)CN(c2cc(N4CCN(C)CC4)nc(N)n2)C(C)C3)n1 (single isomer, unassigned) [Example 86B]
Result block: f

Query block: Problem: For the compound CN1CCN(c2cc(N3CCc4ccc(-c5cnn(C6(CC#N)CCCC6)c5)cc4C3)nc(N)n2)CC1 , is IC50 under 60 nM?
Result block: f

* * *

Listed next: entries and their corresponding pIC50.
# TARGET DESC: histamine H4 receptor (Homo sapiens, UniProt Q9H3N8)
Answer as the number alone; pIC50 is minus log10 of concentration in mol/L.

// below: answered compounds
CN1CCN(c2cc(N3CCc4ccc(N5CCN(C(=O)Nc6ccc(Cl)cc6)CC5)cc4C3)nc(N)n2)CC1 = 6.58
CC(C)NC(=O)c1cc(-c2ccc3c(c2)CN(c2cc(N4CCN(C)CC4)nc(N)n2)C(C)C3)cn1C (single isomer, unassigned) [Example 90A] = 7.18
CC1Cc2ccc(-c3ccc(C(=O)N4CC(C#N)C4)nc3)cc2CN1c1cc(N2CCN(C)CC2)nc(N)n1 (single isomer, unassigned) [Example 54A] = 7.00
CC1Cc2ccc(-c3ccnc(C(=O)N(C)C)c3)cc2CN1c1cc(N2CCN(C)CC2)nc(N)n1 (single isomer, unassigned) [Example 61B] = 7.19
CCNC(=O)c1ncc(-c2ccc3c(c2)CN(c2cc(N4CCN(C)CC4)nc(N)n2)C(C)C3)cn1 (single isomer, unassigned) = 6.83

Proceed to the following item.
Query block: Item: CC1Cc2ccc(C3=CCN(C(=O)NC4CCCC4)CC3)cc2CN1c1cc(N2CCN(C)CC2)nc(N)n1 (stereo not drawn) Test system: histamine H4 receptor (Homo sapiens, UniProt Q9H3N8) Read-out: pIC50 Value: ?
Result block: 7.17

* * *

# TARGET DESC: histamine H4 receptor (Homo sapiens, UniProt Q9H3N8)
Sorting guide: entries reporting IC50 beneath 100 nM go in the y pile, the rest go in the n pile.

Illustrative cases are given below, each with its answer.
CC1Cc2ccc(-c3ccc(C(=O)N4CC[C@@H](O)C4)nc3)cc2CN1c1cc(N2CCN(C)CC2)nc(N)n1 (single isomer, unassigned) [Example 56A] = y
CC1Cc2ccc(-c3ccc4c(c3)N(C)C(=O)CO4)cc2CN1c1cc(N2CCN(C)CC2)nc(N)n1 (stereo not shown) [Example 132] = y
CC1Cc2ccc(-c3cc(C(=O)N4CCC4)n(C)c3)cc2CN1c1cc(N2CCN(C)CC2)nc(N)n1 (single isomer, unassigned) [Example 92B] = n
CC(=O)N1CCN(c2ccc3c(c2)CN(c2cc(N4CCN(C)CC4)nc(N)n2)CC3)CC1 [Example 31] = n

Query block: Say whether its IC50 is strictly beneath 100 nM. Entry: CC1Cc2ccc(-c3ccnc(C(=O)N4CCCC4)c3)cc2CN1c1cc(N2CCN(C)CC2)nc(N)n1 (single isomer, unassigned) [Example 64A]
Result block: n

Query block: Input CN1CCN(c2cc(-c3ccc4c(c3)CN(c3cc(N5CCN(C)CC5)nc(N)n3)CC4)ccn2)CC1 [Example 5] ; condition: IC50 strictly below 100 nM. Does it hold?
Result block: n

Query block: Dear reviewer, please state whether CC1Cc2ccc(-c3ccn(CC#N)n3)cc2CN1c1cc(N2CCN(C)CC2)nc(N)n1 (single isomer, unassigned) [Example 82A] has IC50 strictly beneath 100 nM.
Result block: y

* * *

Some molecules, each annotated with its measured pIC50.
# TARGET DESC: histamine H4 receptor (Homo sapiens)
On this scale, pIC50 is minus log10 of a concentration expressed in M (mol/L).

CC(C)OC(=O)N1CCC(c2ccc3c(c2)CN(c2cc(N4CCN(C)CC4)nc(N)n2)C(C)C3)CC1 (stereo not shown) [Example 139] = 7.27
CC1Cc2ccc(-c3ccnc(C(=O)N4CC[C@H](F)C4)c3)cc2CN1c1cc(N2CCN(C)CC2)nc(N)n1 (single isomer, unassigned) [Example 66B] = 7.24
CC1Cc2ccc(-c3cc(C(=O)N(C)C)n(C)c3)cc2CN1c1cc(N2CCN(C)CC2)nc(N)n1 (single isomer, unassigned) [Example 89A] = 7.59
CC1Cc2ccc(-c3ccnc(C(=O)N4CC(C#N)C4)c3)cc2CN1c1cc(N2CCN(C)CC2)nc(N)n1 (single isomer, unassigned) [Example 63A] = 7.36
CC1Cc2ccc(-c3ccnc(C(=O)N4CC[C@H](O)C4)c3)cc2CN1c1cc(N2CCN(C)CC2)nc(N)n1 (single isomer, unassigned) [Example 65B] = 7.10
CC1Cc2ccc(-c3ccc(C(=O)N4CC[C@@H](O)C4)nc3)cc2CN1c1cc(N2CCN(C)CC2)nc(N)n1 (single isomer, unassigned) [Example 56B] = 6.76

Query block: Which pIC50 is reported with histamine H4 receptor (Homo sapiens) for this entry: CNC(=O)c1ccc(-c2ccc3c(c2)CN(c2cc(N4CCN(C)CC4)nc(N)n2)C(C)C3)cn1 (single isomer, unassigned) [Example 49A] ?
Result block: 7.35

Query block: Param readout= pIC50; system= histamine H4 receptor (Homo sapiens); entry= CC1Cc2ccc(-c3ccc(C(=O)N4CCC4)nc3)cc2CN1c1cc(N2CCN(C)CC2)nc(N)n1 (single isomer, unassigned) [Example 53A] ; returns value.
Result block: 6.70

Query block: Record lookup: for histamine H4 receptor (Homo sapiens), what pIC50 belongs to CC1Cc2ccc(-c3cnn(CCF)c3)cc2CN1c1cc(N2CCN(C)CC2)nc(N)n1 (single isomer, unassigned) [Example 100] ?
Result block: 7.70

Source listed as patent US20130244999A1.
